Where do the numbers come from? From the supplement of paper PMC10883282.

Quick list: relative viability per entry.
Test system: KHOS-240S
Assay: relative viability vs DMSO control (72 h) (fraction); higher = more viable cells
Conditions: 10 µM

| Compound | relative viability |
| --- | --- |
| N#CC1(c2ccc(NC(=O)c3cccnc3NCc3ccncc3)cc2)CCCC1 | 0.873 |
| CCc1cnn2c(NCc3ccc[n+]([O-])c3)cc(N3CCCC[C@H]3CCO)nc12 | 0.181 |
| COC(=O)[C@@]1(O)C[C@H]2O[C@]1(C)n1c3ccccc3c3c4c(c5c6ccccc6n2c5c31)C(=O)NC4 [K-252a] | 0.0419 |
| COCCNc1cc(NC(=O)N2CCCc3cc(CN4CCN(C)CC4=O)c(C=O)nc32)ncc1C#N | 0.967 |
| CC(C)NC[C@@H](C(=O)N1CCN(c2ncnc3c2[C@H](C)C[C@H]3O)CC1)c1ccc(Cl)cc1 | 0.703 |
| C[C@]12O[C@H](C[C@]1(O)CO)n1c3ccccc3c3c4c(c5c6ccccc6n2c5c31)CNC4=O | 0.0619 |
| CN1CCN(c2ccc(C(=O)Nc3n[nH]c4ccc(Cc5cc(F)cc(F)c5)cc34)c(NC3CCOCC3)c2)CC1 | 0.0159 |
| CC#CC(=O)N1CCC[C@H]1c1nc(-c2ccc(C(=O)Nc3ccccn3)cc2)c2c(N)nccn12 | 1.05 |
| O=C(Nc1nc2cccc(-c3ccc(CN4CCS(=O)(=O)CC4)cc3)n2n1)C1CC1 | 0.932 |

----------
Tested on: SK-LMS-1
Test: relative viability vs DMSO control (72 h) (fraction); higher = more viable cells
Settings: 0.04115 µM
Quantity: relative viability

| Molecule | Reported Value |
| --- | --- |
| COc1cc(CCc2cc(NC(=O)c3ccc(N4CC(C)NC(C)C4)cc3)n[nH]2)cc(OC)c1 (centres undefined) [AZD-4547] | 0.991 |
| CC[C@@H]1CN(C(=O)NCC(F)(F)F)C[C@@H]1c1cnc2cnc3[nH]ccc3n12 [Upadacitinib] | 1.08 |
| O=C1NC(=O)[C@@H](c2cn3c4c(cccc24)CCC3)[C@@H]1c1c[nH]c2ccccc12 [Tivantinib] | 0.965 |
| CN1CCN(c2ccc(C(=O)Nc3n[nH]c4ccc(Cc5cc(F)cc(F)c5)cc34)c(NC3CCOCC3)c2)CC1 [Entrectinib] | 1.07 |

----------
Tested on: SW982
Test: relative viability vs DMSO control (72 h) (fraction); higher = more viable cells
Details: 0.04115 µM
Quick list: relative viability per entry.
Quantity: relative viability

| Compound | Quantity | Reported Value |
| --- | --- | --- |
| CC(C)(C)c1nc(-c2cccc(NS(=O)(=O)c3c(F)cccc3F)c2F)c(-c2ccnc(N)n2)s1 | relative viability | 0.779 |
| O=C1NC(=O)[C@@H](c2cn3c4c(cccc24)CCC3)[C@@H]1c1c[nH]c2ccccc12 [Tivantinib] | relative viability | 1.04 |
| CC#CC(=O)N1CCC[C@H]1c1nc(-c2ccc(C(=O)Nc3ccccn3)cc2)c2c(N)nccn12 | relative viability | 1.03 |
| CC(C)(O)CNc1nc(Nc2ccnc(C(F)(F)F)c2)nc(-c2cccc(C(F)(F)F)n2)n1 | relative viability | 1.06 |
| COC(=O)N[C@@H](C)CNc1nccc(-c2cn(C(C)C)nc2-c2cc(Cl)cc(NS(C)(=O)=O)c2F)n1 | relative viability | 0.828 |
| O=C(Nc1ccc(OC(F)(F)Cl)cc1)c1cnc(N2CC[C@@H](O)C2)c(-c2cc[nH]n2)c1 | relative viability | 1.01 |
| O=C(Nc1nc2cccc(-c3ccc(CN4CCS(=O)(=O)CC4)cc3)n2n1)C1CC1 | relative viability | 1.06 |
| Cc1cccc(-c2nn3c(c2-c2ccnc4ccc(C(N)=O)cc24)CCC3)n1 | relative viability | 0.98 |
| COc1cc(Nc2ncc(F)c(Nc3ccc4c(n3)N(COP(=O)(O)O)C(=O)C(C)(C)O4)n2)cc(OC)c1OC | relative viability | 1.02 |

----------
Tested on: G401
Assay: relative viability vs DMSO control (72 h) (fraction); higher = more viable cells
Conditions: 1.111 µM
Quick list: relative viability per entry.
Quantity: relative viability

| Compound | Subject Of Test | Quantity | Reported Value |
| --- | --- | --- | --- |
| O=c1sn(-c2cccc3ccccc23)c(=O)n1Cc1ccccc1 | G401 | relative viability | 0.984 |
| CNC(=O)c1nnc(NC(=O)C2CC2)cc1Nc1cccc(-c2ncn(C)n2)c1OC | G401 | relative viability | 1.01 |
| COC(=O)N[C@@H](C)CNc1nccc(-c2cn(C(C)C)nc2-c2cc(Cl)cc(NS(C)(=O)=O)c2F)n1 | G401 | relative viability | 0.841 |
| COc1cc(OC)c(/C=C/S(=O)(=O)Cc2ccc(OC)c(NCC(=O)O)c2)c(OC)c1 | G401 | relative viability | 0.534 |
| CNC(=O)c1ccccc1Sc1ccc2c(/C=C/c3ccccn3)n[nH]c2c1 | G401 | relative viability | 0.806 |
| Cc1cc2cc(Oc3ccnc(Nc4cccc(CS(=O)(=O)NCCN(C)C)c4)n3)ccc2[nH]1 | G401 | relative viability | 0.969 |
| COc1cc(CCc2cc(NC(=O)c3ccc(N4CC(C)NC(C)C4)cc3)n[nH]2)cc(OC)c1 (configuration not stated) | G401 | relative viability | 0.486 |

----------
System: RD-ES
Assay: relative viability vs DMSO control (72 h) (fraction); higher = more viable cells
Conditions: 0.00152 µM
Quantity: relative viability

| Structure | Subject Of Test | Reported Value |
| --- | --- | --- |
| COC(=O)N[C@@H](C)CNc1nccc(-c2cn(C(C)C)nc2-c2cc(Cl)cc(NS(C)(=O)=O)c2F)n1 | RD-ES | 0.973 |
| Cn1cc(C2=C(c3cn(C4CCN(Cc5ccccn5)CC4)c4ccccc34)C(=O)NC2=O)c2ccccc21 | RD-ES | 1 |
| N#CCNC(=O)c1ccc(-c2ccnc(Nc3ccc(N4CCOCC4)cc3)n2)cc1 | RD-ES | 0.976 |
| CNC(=O)c1nnc(NC(=O)C2CC2)cc1Nc1cccc(-c2ncn(C)n2)c1OC | RD-ES | 1.01 |
| COCCNc1cc(NC(=O)N2CCCc3cc(CN4CCN(C)CC4=O)c(C=O)nc32)ncc1C#N | RD-ES | 0.986 |
| Cc1cc2c(F)c(Oc3ncnn4cc(OC[C@@H](C)O)c(C)c34)ccc2[nH]1 | RD-ES | 0.985 |
| O=S(=O)(c1cccc2cnccc12)N1CCCNCC1 | RD-ES | 0.987 |
| CC1(COc2ccc3c(c2)ncn3-c2ccc3cccc(N4CCC(N)CC4)c3n2)COC1 | RD-ES | 0.957 |

----------
System: SW1353
Experiment: standardised AUC of viability dose-response curve (72 h) (fraction (0-1)); higher = less growth inhibition (more resistant)
Quick list: standardised AUC per entry.
Quantity: standardised AUC

| Structure | Quantity | Reported Value |
| --- | --- | --- |
| CCc1cnn2c(NCc3ccc[n+]([O-])c3)cc(N3CCCC[C@H]3CCO)nc12 | standardised AUC | 0.551 |
| CN1CC[C@@H](NC(=O)Nc2ccc(C#N)cc2)C[C@@H]1c1nc2ccccc2[nH]1 | standardised AUC | 0.988 |
| CC(C)(O)CNc1nc(Nc2ccnc(C(F)(F)F)c2)nc(-c2cccc(C(F)(F)F)n2)n1 | standardised AUC | 0.99 |
| CCN1C(=O)N(c2c(F)c(OC)cc(OC)c2F)Cc2cnc3[nH]c(CN4CCOCC4)cc3c21 | standardised AUC | 0.861 |

----------
System: G401
Test: relative viability vs DMSO control (72 h) (fraction); higher = more viable cells
Details: 0.3704 µM
Quick list: relative viability per entry.

| Structure | Subject Of Test | relative viability |
| --- | --- | --- |
| CCN(CC)CCNC(=O)c1c(C)[nH]c(/C=C2\C(=O)Nc3ccc(F)cc32)c1C | G401 | 0.98 |
| COCCNc1cc(NC(=O)N2CCCc3cc(CN4CCN(C)CC4=O)c(C=O)nc32)ncc1C#N | G401 | 0.967 |
| CNC(=O)c1nnc(NC(=O)C2CC2)cc1Nc1cccc(-c2ncn(C)n2)c1OC | G401 | 1.03 |

----------
Test system: RD-ES
Assay: relative viability vs DMSO control (72 h) (fraction); higher = more viable cells
Conditions: 10 µM
Quick list: relative viability per entry.

| Compound | relative viability |
| --- | --- |
| CC(C)Oc1ccc(-c2nn([C@@H](C)c3oc4ccc(F)cc4c(=O)c3-c3cccc(F)c3)c3ncnc(N)c23)cc1F | 1.02 |
| CNC(=O)c1ccccc1Sc1ccc2c(/C=C/c3ccccn3)n[nH]c2c1 | 0.0832 |
| N#CCNC(=O)c1ccc(-c2ccnc(Nc3ccc(N4CCOCC4)cc3)n2)cc1 | 0.797 |
| Cn1cc(C2=C(c3cn(C4CCN(Cc5ccccn5)CC4)c4ccccc34)C(=O)NC2=O)c2ccccc21 | 1.04 |
| COC(=O)[C@@]1(O)C[C@H]2O[C@]1(C)n1c3ccccc3c3c4c(c5c6ccccc6n2c5c31)C(=O)NC4 [K-252a] | 0.0303 |
| Clc1ccc(Nc2nnc(Cc3ccncc3)c3ccccc23)cc1 | 0.947 |
| Cn1ncnc1[C@H]1c2n[nH]c(=O)c3cc(F)cc(c23)N[C@@H]1c1ccc(F)cc1 | 0.0143 |
| CC(C)NC[C@@H](C(=O)N1CCN(c2ncnc3c2[C@H](C)C[C@H]3O)CC1)c1ccc(Cl)cc1 | 0.435 |
| CN1CC[C@@H](NC(=O)Nc2ccc(C#N)cc2)C[C@@H]1c1nc2ccccc2[nH]1 | 0.891 |
| CO[C@H]1C[C@@H]2CC[C@@H](C)[C@@](O)(O2)C(=O)C(=O)N2CCCC[C@H]2C(=O)O[C@H]([C@H](C)C[C@@H]2CC[C@@H](OCCO)[C@H](OC)C2)CC(=O)[C@H](C)/C=C(\C)[C@@H](O)[C@@H](OC)C(=O)[C@H](C)C[C@H](C)/C=C/C=C/C=C/1C | 0.488 |
